These measurements were taken from ChEMBL document CHEMBL4190165.

Assay: Binding affinity to yeast Hsp90 by isothermal titration calorimetric method
Set-up: species or system Saccharomyces cerevisiae
propertyLabel: Kd (µM)

[1] C[C@@H]1C[C@H]2O[C@@H]2/C=C\C=C\C(=O)Cc2c(Cl)c(O)cc(O)c2C(=O)O1 [RADICICOL]
[2] COC1=C2C[C@@H](C)C[C@H](OC)[C@H](O)[C@@H](C)/C=C(\C)[C@H](OC(N)=O)[C@@H](OC)/C=C\C=C(/C)C(=O)NC(=CC1=O)C2=O [GELDANAMYCIN]
Which numeric Kd is bigger, that of 1 or that of 2 ? Let me know the label of the one you choose.
2
